viability at 28.5 h, 10 µM listing for selected compounds.
Experiment: in vitro
Conditions: human, hela cells, % viability

Compound	Units text	viability at 28.5 h, 10 µM
CN(C)CCN(C)c1cc(-c2ccc(F)c(Cl)c2)nc2ccnn12	%	90.4
CC(=O)c1ccc(-c2cnc(N)c(N3CCC[C@@H]3CO)n2)s1	%	97.9
CCN(CC)C(=O)c1c(F)ccc(F)c1C(=O)O	%	85
O=C1CCCN1c1ccc(S(=O)(=O)NCC2CC3CCC2C3)cc1 (stereo not drawn)	%	106
Cc1ccc(Oc2ccc(CNC(=O)c3sc4nc[nH]c(=O)c4c3C)cc2)cc1	%	91.3
O=C(c1ccc(=O)[nH]n1)N1C2CCC1CC(c1ccc(F)cc1)C2 (stereo not drawn)	%	94.4
Cn1nc(-c2ccc(S(=O)(=O)Nc3cccc(Cl)c3Cl)s2)cc1C(F)(F)F	%	92.2
CC1CCN(Cc2ccc(-c3ccc(CC(=O)NCc4ccc(C#N)cc4)cn3)cc2)CC1	%	93.8
CCN(CC)C(=O)c1ccsc1NS(=O)(=O)c1ccc(Br)cc1	%	93.2

###

Assay: in vitro
Settings: human, hela cells, % viability
viability at 28.5 h, 10 µM listing for selected compounds.

Compound	Units text	viability at 28.5 h, 10 µM
CCCCCC(=O)N[C@H]1CCC[C@H]1C(=O)O	%	118
CC(=O)Nc1ccc(CN2CCCCCC2c2cc(C)no2)cc1 (centres unmarked)	%	101
COCCCN(Cc1ccccn1)Cc1c(F)cccc1F	%	93.5
O=C(c1c[nH]nc1-c1cc2ccccc2o1)N1CCC(O)(C(F)(F)F)C1 (centres unmarked)	%	90.7
Cc1nn(-c2ccccn2)c2c1-c1oncc1CC2	%	90.7

###

% viability listing for selected molecules.
Test system: HeLa
Conditions: bulk resorufin, single well, 28.5 h, 10 µM, Bulk resorufin fluorescence
Endpoint name: % viability (%)

Molecule	Target or system	Endpoint name	Recorded value
NS(=O)(=O)c1ccc2nc(NC(=O)c3ccc(Cl)s3)sc2c1	HeLa	% viability	89.6
FC(F)(F)c1ccnc(OCCCc2ccncc2)c1	HeLa	% viability	101
Clc1ccc(COc2ccnc(N3CCCN(CCN4CCOCC4)CC3)n2)cc1Cl	HeLa	% viability	98.9
COc1ccc2[nH]cc(CCNC(=O)Cc3c[nH]c4ccc(O)cc34)c2c1	HeLa	% viability	84.5
O=C(C1CC1)N1CCC[C@H]1Cn1nc(-c2cccs2)ccc1=O	HeLa	% viability	80.9
CC(=O)Nc1ccc(NS(=O)(=O)c2ccc(O)c(C(=O)O)c2)cc1	HeLa	% viability	96.9
C=CCNC(=O)[C@H]1C=CCN1S(=O)(=O)c1cccc2ccccc12	HeLa	% viability	102
Cn1c(=O)c2c(-c3ccccc3)n(-c3ccc(C(=O)O)cc3)cc2n(C)c1=O	HeLa	% viability	98.4
COc1ccc(CC(=O)N2CCN(Cc3ccco3)C[C@H]2C)cc1	HeLa	% viability	104
C[C@@H]1CN2C[C@H](O)CC2CN1Cc1cccc(C(F)(F)F)c1 (stereo partly shown)	HeLa	% viability	88.1
C=CCn1cc(CN2C[C@@H]3CCCN3C[C@H]2CCSC)c(C)n1	HeLa	% viability	106
CCC(C)NC(=O)Cn1c([C@H]2CCCO2)cc2cccnc21 (stereo partly shown)	HeLa	% viability	100
O=C(NCCc1ccccc1)[C@@H]1C=CCN1C(=O)C1CC1	HeLa	% viability	81.8
C[C@@H]1CN2C[C@H](O)CC2CN1Cc1ccccc1C(F)(F)F (stereo partly shown)	HeLa	% viability	100
O=C(Cn1c([C@@H]2CCCO2)cc2cccnc21)N1CCCCCC1	HeLa	% viability	101
O=C(CC1SC(Nc2ccc(O)cc2)=NC1=O)c1ccccc1 (stereo not shown)	HeLa	% viability	89
O=C(CN1C(=O)[C@H]2CCCN2C(=O)c2ccccc21)NC1CCCC1	HeLa	% viability	110
CCn1cc(CN2C[C@@H]3CCCN3C[C@H]2CCSC)c(C)n1	HeLa	% viability	99.1
O=C(C1CC1)N1CCC[C@H](Cn2nc(-c3cccs3)ccc2=O)C1	HeLa	% viability	91.8
